The molecules listed here are annotated with their GI50.
# Test system: UO-31
# assay.name: NCI tumour cell line growth inhibition, 48 h
Active and inactive are the calls of the source. Rule as the data show it: active = GI50 up to about 1.1 µM and inactive = higher.
quantity: GI50

{"molecule": "CCN(CC)CCCC(C)Nc1ccnc2cc(Cl)ccc12 (stereo unspecified) [CHLOROQUINE PHOSPHATE]", "quantity": "GI50", "measured.result": "14.9 µM (inactive)"}
{"molecule": "CC(=O)Nc1ccc2oc(=O)c3ccccc3c2c1", "quantity": "GI50", "measured.result": "> 100 µM (inactive)"}
{"molecule": "COc1ccc(NC(=O)CC(=O)n2nc(-c3ccccc3)c(/N=N/c3ccccc3C(=O)O)c2-c2ccccc2)cc1", "quantity": "GI50", "measured.result": "> 100 µM (inactive)"}
{"molecule": "CCCCNC(=S)Nc1nc(C(=O)NNC(=S)Nc2ccccc2)cs1", "quantity": "GI50", "measured.result": "> 100 µM (inactive)"}
{"molecule": "COc1cc(C=O)cc(O)c1O", "quantity": "GI50", "measured.result": "> 100 µM (inactive)"}
{"molecule": "CCOC(=O)C1=NN(c2ccc(C)cc2)C2(c3ccccc3)C=C(c3ccccc3)N(C)CCN12 (stereo unspecified)", "quantity": "GI50", "measured.result": "> 100 µM (inactive)"}
{"molecule": "Nc1ccc(C(=O)N/C(=C\\C=C\\c2ccco2)c2nc3c(O)nc(S)nc3[nH]2)cc1", "quantity": "GI50", "measured.result": "> 100 µM (inactive)"}
{"molecule": "c1ccc2c(c1)c(N1CCCCC1)cc1nc3c(cc(N4CCCCC4)c4ccccc43)nc12", "quantity": "GI50", "measured.result": "> 100 µM (inactive)"}
{"molecule": "CN(C)/C=N/n1c2ccccc2c2ccccc21", "quantity": "GI50", "measured.result": "> 100 µM (inactive)"}
{"molecule": "COC(=O)C(=O)C(CC(=O)Nc1cccc(C(F)(F)F)c1)C(=O)OC (stereo unspecified)", "quantity": "GI50", "measured.result": "> 100 µM (inactive)"}
{"molecule": "CN1N=C(c2ccncc2)OC1c1ccc(Cl)c(Cl)c1 (stereo unspecified)", "quantity": "GI50", "measured.result": "> 100 µM (inactive)"}
{"molecule": "CCNCCNC(=O)c1ccc(Br)cc1", "quantity": "GI50", "measured.result": "> 100 µM (inactive)"}
{"molecule": "COC(=O)C(Cc1c[nH]c2ccccc12)NC1=Nc2ccncc2S(=O)(=O)N1c1cccc(OC(C)C)c1 (stereo unspecified)", "quantity": "GI50", "measured.result": "45.3 µM (inactive)"}
{"molecule": "NC1(C(=O)OCc2ccccc2)CCCC1", "quantity": "GI50", "measured.result": "15.6 µM (inactive)"}
{"molecule": "CCC/N=C/c1c(O)c(O)c(C(C)C)c2cc(C)c(-c3c(C)cc4c(C(C)C)c(O)c(O)c(/C=N/CCC)c4c3O)c(O)c12", "quantity": "GI50", "measured.result": "6.3 µM (inactive)"}
{"molecule": "N#CN=C(NCc1ccccc1)NCc1ccccc1", "quantity": "GI50", "measured.result": "> 100 µM (inactive)"}
{"molecule": "C[C@@H](c1ccccc1)N1C[C@@H](c2ccc3c(c2)OCO3)[C@@H]2C(=O)CCC[C@@H]21", "quantity": "GI50", "measured.result": "83 µM (inactive)"}
{"molecule": "CC(=O)Nc1nnc(S(=O)(=O)NC(=S)Nc2ccc(Cl)cc2)s1", "quantity": "GI50", "measured.result": "> 100 µM (inactive)"}
{"molecule": "COC(=O)C(C#CCCCCC#CC(NC(=O)OCc1ccccc1)(C(=O)OC)C(F)(F)F)(NC(=O)OCc1ccccc1)C(F)(F)F (stereo unspecified)", "quantity": "GI50", "measured.result": "7.45 µM (inactive)"}
{"molecule": "CCc1ccccc1NC(=O)C(C#N)C1=C(Cl)C(=O)c2ccccc2C1=O (stereo unspecified)", "quantity": "GI50", "measured.result": "13 µM (inactive)"}
{"molecule": "COC1/C(=C\\C(C)=O)c2ccccc2N1C(C)=O (stereo unspecified)", "quantity": "GI50", "measured.result": "> 100 µM (inactive)"}

Reference source: ChEMBL document CHEMBL1201862
